Data provenance: ChEMBL document CHEMBL1157539

Test system: Plasmodium falciparum
Test: GSK_TCMDC: Inhibition of Plasmodium falciparum 3D7 in whole red blood cells, using parasite LDH activity as an index of growth. Test compounds present at 2uM
Assay type: functional
parameter measured: Inhibition (%)
Report the figure in % without appending any unit label.

Answered examples (4):
Problem: Plasmodium falciparum / Inhibition / CC(C)c1ccc(-c2nc3cc(Cl)cnc3[nH]2)cc1 : value?
Solution: 87

Problem: Plasmodium falciparum / Inhibition / Cc1cc(-c2cc3nc4c(c(O)n3n2)CCCC4)c(C)o1 : value?
Solution: 94

Problem: Plasmodium falciparum / Inhibition / Cc1nnsc1C(=O)Nc1cccc(-c2ccc(-c3nc4cc(C(F)(F)F)ccc4[nH]3)cc2)c1 : value?
Solution: 99

Problem: Plasmodium falciparum / Inhibition / CCCc1ccc(Nc2nc(C)cc(N(CC)CCCN3CCCCC3)n2)cc1.O=C(O)C(F)(F)F : value?
Solution: 100

Others:
Problem: Plasmodium falciparum / Inhibition / O=C(Nc1ccc2c(c1)OCO2)NC1CCN(c2ccnc(Nc3ccc(F)cc3)n2)C1 (stereo not given) : value?
Solution: 100

Problem: Plasmodium falciparum / Inhibition / Cc1[nH]c(C)c(-c2csc3ccccc23)c(=O)c1Cl : value?
Solution: 97

---

Tested on: Plasmodium falciparum
Assay: GSK_TCMDC: Inhibition of Plasmodium falciparum Dd2 in whole red blood cells, using parasite LDH activity as an index of growth. Test compounds present at 2uM
Type: functional
Listing of entries alongside the reported Inhibition.

Answered examples (3):
Problem: GET /values?readout=Inhibition&item= O=C(Nc1cccc(C(F)(F)F)c1)NC1CCN(c2ccnc3cc(Cl)ccc23)C1.O=C(O)C(F)(F)F (centres undefined)
Solution: 89%

Problem: GET /values?readout=Inhibition&item= O=C(O)C(F)(F)F.Oc1ccc(CCCNc2nc(NCc3cccc4ccccc34)nc(N3CCNCC3)n2)cc1
Solution: 4%

Problem: GET /values?readout=Inhibition&item= CCCCCCN(C(=O)OCc1ccccc1)C1CCN(C(=O)OC(C)(C)C)CC1C(=O)OCC (centres undefined)
Solution: 96%

Others:
Problem: GET /values?readout=Inhibition&item= O=C(Nc1ccc(-c2cccc(-c3nc4cc(C(F)(F)F)ccc4[nH]3)c2)cc1)c1ccncc1
Solution: 23%

Problem: GET /values?readout=Inhibition&item= COC(=O)c1noc(C)c1I
Solution: 2%

Problem: GET /values?readout=Inhibition&item= COc1cc2nc(N3CCC(CCCC4CCNCC4)CC3)nc(NCc3ccccn3)c2cc1OC.O=C(O)C(F)(F)F
Solution: 6%

Problem: GET /values?readout=Inhibition&item= COc1ccc(OCCCN2CCN(CC(c3ccc(F)cc3)N3CCN(C(C)C)CC3)CC2)c2ccccc12.O=C(O)C(F)(F)F (centres undefined)
Solution: 32%

Problem: GET /values?readout=Inhibition&item= COc1ccc(-c2cccc(NC(=O)c3cccc(C#N)c3)c2)cc1CN(C)CCO.O=C(O)C(F)(F)F
Solution: 30%

Problem: GET /values?readout=Inhibition&item= Fc1cccc(COc2ccc(Nc3ncnc4cc(/C=C/[C@@H]5CCCN5)sc34)cc2Cl)c1
Solution: 56%

---

System: HepG2
Assay: GSK_TCMDC: Percent inhibition of human HepG2 cell line. Test compounds present at 10uM.
Type: functional
Decision: Inhibition beneath 30% gives TRUE; Inhibition meeting or exceeding 30% gives FALSE.

The following compounds have reported results that may help.
Problem: Does the reported Inhibition of c1csc(-c2nc(NCC3CCCO3)ncc2-c2ccsc2)n1 (centres undefined) stay below 30%?
Solution: TRUE

Problem: Does the reported Inhibition of CCC(C)(C)c1ccc2nc(N)nc(N)c2c1C stay below 30%?
Solution: FALSE

Problem: Does the reported Inhibition of CCCc1ccccc1OCC(O)CN(C1CCCC1)C1CCCC1.Cl (centres undefined) stay below 30%?
Solution: FALSE

Others:
Problem: Does the reported Inhibition of CCOC(=O)c1ccc(NC(=O)Nc2cccc(-c3ccc(-c4nc5cccc(C)c5[nH]4)s3)c2)cc1 stay below 30%?
Solution: FALSE

Problem: Does the reported Inhibition of Cc1cc(-c2cccc(CNCCc3ccc(Cl)cc3)c2)cnc1N.Cl stay below 30%?
Solution: TRUE

Problem: Does the reported Inhibition of COc1ccc(S(=O)(=O)N(CCCN2CCN(C)CC2)Cc2csc(-c3ccc(CNCc4ccccc4)cc3)n2)cc1.O=C(O)C(F)(F)F stay below 30%?
Solution: TRUE

Problem: Does the reported Inhibition of CC(=O)N(C)c1ccc(C(=O)Nc2cccc(-c3cccc(-c4nc5cc(C(F)(F)F)ccc5[nH]4)c3)c2)cc1 stay below 30%?
Solution: FALSE

Problem: Does the reported Inhibition of COc1ccc(Cl)cc1N1CCN(CCCNC(=O)c2ccc(-c3nc4cc(Cl)c(F)cc4[nH]3)cc2)CC1 stay below 30%?
Solution: TRUE

Problem: Does the reported Inhibition of Br.CC1(C)NC(N)=NC(=N)N1OCCCO stay below 30%?
Solution: TRUE

Problem: Does the reported Inhibition of CC(C)CNC(=O)c1ccc(-c2cccc(CN3CCC(N4CCCC4)CC3)c2)nc1.O=C(O)C(F)(F)F stay below 30%?
Solution: TRUE

Problem: Does the reported Inhibition of CC(NC(=O)c1ccc(O)c(-c2ccc(Cl)c(Cl)c2)c1)C(=O)NCCN1CCCCC1 (centres undefined) stay below 30%?
Solution: TRUE

Problem: Does the reported Inhibition of COc1ccc(Cc2cnc3nc(N)nc(N)c3c2C)cc1.Cl stay below 30%?
Solution: FALSE

Problem: Does the reported Inhibition of Cc1ccccc1C1CCN(C2CCC(NC(=O)/C=C/c3ccc4c(c3)OC(F)(F)O4)CC2)CC1 (centres undefined) stay below 30%?
Solution: FALSE

Problem: Does the reported Inhibition of Cc1cccc2nc(-c3cccc(-c4ccc(NC(=O)C5CC(=O)Nc6ccccc65)cc4)c3)[nH]c12 (centres undefined) stay below 30%?
Solution: TRUE

Problem: Does the reported Inhibition of COc1ccc(NC(=O)Nc2cccc(-c3cccc(-c4nc5ccccc5[nH]4)c3)c2)cc1 stay below 30%?
Solution: FALSE

Problem: Does the reported Inhibition of Clc1ccc(C=NN=c2cc[nH]c3ccccc23)cc1 stay below 30%?
Solution: TRUE

Problem: Does the reported Inhibition of Cc1ccccc1C1CCN(C2CCC(NC(=O)c3csc(-c4cccc(Cl)c4)n3)CC2)CC1 (centres undefined) stay below 30%?
Solution: FALSE

Problem: Does the reported Inhibition of CC[C@H](C)CNC(=O)c1cccc(-c2cccc(CN3CCC(N4CCCC4)CC3)c2)n1.O=C(O)C(F)(F)F stay below 30%?
Solution: TRUE

Problem: Does the reported Inhibition of Cc1cccc2nc(-c3cccc(-c4ccc(NC(=O)CCc5c[nH]cn5)cc4)c3)[nH]c12 stay below 30%?
Solution: TRUE

---

Tested on: Plasmodium falciparum
Assay: GSK_TCMDC: Inhibition of Plasmodium falciparum 3D7 in whole red blood cells, using parasite LDH activity as an index of growth. Test compounds present at 2uM
Type: functional
Listing of entries alongside the reported Inhibition.
Report the figure in % without appending any unit label.

Problem: GET /values?readout=Inhibition&item= CC(C)(CNC(=O)C1CCN(CC2CCCCC2)CC1)c1nc(-c2ccc(Cl)c(O)c2)c(-c2ccncc2)[nH]1.Cl
Solution: 98

Problem: GET /values?readout=Inhibition&item= FC(F)(F)c1ccc2[nH]c(-c3ccc(-c4ccc(CNCc5ccccc5)cc4)cc3)nc2c1.O=C(O)C(F)(F)F
Solution: 100

Problem: GET /values?readout=Inhibition&item= Cc1cc(OCCCN2CCCC2)ccc1NC(=O)COc1ccc(Cl)cc1C(=O)c1cc(C#N)cc(C(F)(F)F)c1
Solution: 85

Problem: GET /values?readout=Inhibition&item= COc1ccc(Nc2nccc(-c3cccc(NC(=O)c4cc5cc(F)ccc5[nH]4)c3)n2)cc1
Solution: 92

Problem: GET /values?readout=Inhibition&item= Cc1cc(Br)cnc1CCCCNC1=NC(=O)CN1C
Solution: 95

Others:
Problem: GET /values?readout=Inhibition&item= CCN1CCC(N(Cc2ccc(-c3ccc(C(F)(F)F)cc3)cc2)C(=O)Cn2c(CCc3cccc(F)c3F)cc(=O)c3ccccc32)C1.O=C(O)C(O)C(O)C(=O)O (configuration not stated)
Solution: 93

Problem: GET /values?readout=Inhibition&item= COc1cc2nc(NCc3cccc(CNC(=O)c4ccc(-c5ccc(C(C)=O)cc5)cc4)c3)nc(N)c2cc1OC.O=C(O)C(F)(F)F
Solution: 100

---

Test system: Plasmodium falciparum
Experiment: GSK_TCMDC: Inhibition of Plasmodium falciparum Dd2 in whole red blood cells, using parasite LDH activity as an index of growth. Test compounds present at 2uM
Format: functional
parameter measured: Inhibition

Problem: GET /values?readout=Inhibition&item= O=C(Nc1cccc(C(F)(F)F)c1)c1ccc(S(=O)(=O)NCC2CCCN2CC2CCCCC2)cc1.O=C(O)C(F)(F)F (configuration not stated)
Solution: 3%

Problem: GET /values?readout=Inhibition&item= O=C(NC1CCC(N2CCN(c3cccc(C(F)(F)F)c3)CC2)CC1)c1cc2ccccc2[nH]1 (configuration not stated)
Solution: 22%

Problem: GET /values?readout=Inhibition&item= O=C(Nc1cccc(CN2CCCN(Cc3ccccc3)CC2)c1)c1ccc(Cl)c(Cl)c1.O=C(O)C(F)(F)F
Solution: 16%

Problem: GET /values?readout=Inhibition&item= COc1cc2ccccc2c(OC)c1CCNCCCCNCCc1c(OC)cc2ccccc2c1OC.CS(=O)(=O)O
Solution: 30%

Problem: GET /values?readout=Inhibition&item= Nc1ncc(Cc2ccc3c(ccc4ccccc43)c2)c(N)n1
Solution: 3%

Others:
Problem: GET /values?readout=Inhibition&item= O=C(c1ccccc1[N+](=O)[O-])N(Cc1ccccc1)c1ccccn1
Solution: 0%

Problem: GET /values?readout=Inhibition&item= CCOc1cc(Cc2cnc(N)nc2N)cc(OCC)c1-n1cccc1 [EPIROPRIM]
Solution: 0%

Problem: GET /values?readout=Inhibition&item= N=C(N)NN=CC(=O)Nc1ccc(Cl)c(C(F)(F)F)c1
Solution: 0%

Problem: GET /values?readout=Inhibition&item= CN1CCN(c2ccc3[nH]c(-c4ccc(Cc5cc(Cl)ccc5OCc5ccccc5)o4)nc3c2)CC1.Cl
Solution: 79%

Problem: GET /values?readout=Inhibition&item= Cc1ccc(N2C(=O)C3C(C2=O)C2(c4ccccc4)C(=O)C3(c3ccccc3)C(c3ccccc3)=C2c2ccccc2)cc1 (configuration not stated)
Solution: 96%

Problem: GET /values?readout=Inhibition&item= COc1cccc2cc(C(=O)N[C@@H](CC(C)C)C(=O)N[C@H](C=NNC(=O)OC(C)(C)C)Cc3ccccc3)oc12
Solution: 88%
